Test: Pharmacokinetic profile in beagle dogs after single oral, intranasal and intravenous betahistine
Assay type: in vivo
Settings: female, beagle, dog, in vivo, iv, 0.44 mg/kg
Experimental: In this study, the pharmacokinetic profile of betahistine was evaluated after a single dose administration of betahistine in male and female beagle dogs (age 5-7 months; weight of 5-11 kg, within a range of 3 kg for each sex) for three routes of administration: oral, intranasal, and intravenous. On Day 1 of the study, betahistine (BH) was delivered orally at a dose of 12 mg/kg, 24 mg/kg, or 48 mg/kg. Each treatment group comprised 8 animals (4 males and 4 females). […]
test-readout: Cmax (ng/mL)
Respond with the bare value in ng/mL.

Req: Given the entry "CNCCc1ccccn1" , report its measured Cmax.
Resp: 4.37

###

Assay: clinical
Conditions: both, human, in vivo, tmax, Median (range)
test-readout: tmax (min)
Respond with the bare value in min.

Req: Given the entry "CNCCc1ccccn1" , report its measured tmax.
Resp: 15
